Source of measurements: PubChem BioAssay (NCI)

Test system: 786-0 renal
Assay: NCI tumour cell line growth inhibition, 48 h
valueKind: GI50

{"molecule": "CC(C)CC(=O)Nc1n[nH]c2c1CN(C(=O)C1CCN(C)CC1)C2(C)C", "reading": "2.07 µM"}

For each of the molecules below, state GI50.
1. O=C(O)CCC/C=C\C[C@H]1C=CC(=O)/C1=C/C[C@@H](O)CCc1cccc(C(F)(F)F)c1
2. CC(=O)N1c2ccccc2NC2=C(C(=O)N(Cc3ccccc3)C2(C)C)C1c1ccco1 (stereo not drawn)

Result:
2.95 µM
1.26 µM

* * *

Tested on: MDA-MB-435
Assay: NCI tumour cell line growth inhibition, 48 h
valueKind: TGI

{"molecule": "CS(=O)(=O)CCNCc1ccc(-c2ccc3ncnc(Nc4ccc(OCc5cccc(F)c5)c(C(F)(F)F)c4)c3c2)o1", "reading": "7.68 µM"}

For each of the molecules below, state TGI.
1. COc1ccc(C(=O)/C=C/c2cc3c(c(OC)c2)OCC(=O)N3)cc1
2. O=C(O)CNc1ccc(C(=O)O)cc1

Result:
1. > 100 µM
2. > 100 µM

For each of the molecules below, state TGI.
1. O=c1c(O)cccc2cc(O)c(O)c(O)c12
2. COc1ccc(/C=C2\CCC(C)/C(=C\c3ccc(OC)c(OC)c3)C2=O)cc1OC (stereo not given)

Result:
1. > 100 µM
2. > 100 µM

* * *

Tested on: A549 NSCLC
Assay: NCI tumour cell line growth inhibition, 48 h; in the data active = GI50 below about 0.43 µM; inactive = the rest
Pick one: active, inactive

{"compound": "Cc1cc2cn3c4ccc(O)cc4[nH]c(=O)c3c2cc1C", "group": "active"}
{"compound": "CCN(CC)CCCC(C)Nc1nc(C)cc(Nc2ccc3nc(C)cc(N)c3c2)n1 (stereo not given)", "group": "inactive"}
{"compound": "COc1ccc(-c2nc(C(=O)c3ccccc3)n(CC(=O)c3ccccc3)c2-c2ccc(OC)cc2)cc1", "group": "inactive"}
{"compound": "N#CC(C#N)N=Nc1ccc(Br)cc1", "group": "inactive"}
{"compound": "O=Cc1ccc(-c2ccc(-c3nc4ccccc4o3)cc2)s1", "group": "inactive"}
{"compound": "S=C(Nc1ccc(Cl)cc1)Nc1ccc(-c2nc3ccccc3o2)cc1", "group": "inactive"}
{"compound": "Cc1nccc2c3ccc(OCc4cn(-c5ccc(Cl)cc5)nn4)cc3n(CCCc3ccccc3)c12", "group": "inactive"}
{"compound": "O=C(O)c1ccc(S(=O)(=O)Nc2ccc3oc4c(c3c2)C(=O)CCC4)cc1", "group": "inactive"}

Ask: Which outcome was assigned to Nc1nc(Cl)cc(OCC2(CO)CC(OCc3ccccc3)C2)n1 (stereo not given) in this test?
Result: inactive

Ask: Which outcome was assigned to COc1cc2c3c(n(CCCNCCCNCCCNCCCN)c(=O)c2cc1OC)-c1cc2c(cc1C3=O)OCO2 in this test?
Result: inactive

* * *

Test system: 786-0 renal
Assay: NCI tumour cell line growth inhibition, 48 h; in the data active means GI50 below about 0.43 µM; inactive means the rest
Pick one: active, inactive

{"compound": "Cc1cc(O)c(C2=NN(c3ccc(S(N)(=O)=O)cc3)C(c3ccc(N(C)C)cc3)C2)c(C)c1Cl (centres undefined)", "group": "inactive"}

Ask: Which outcome was assigned to CCN(CC)c1ccc2c(c1)Oc1nc(N)c(C#N)c(N)c1C2Sc1ccc(OC)cc1 (centres undefined) in this test?
Result: inactive

Ask: Which outcome was assigned to Clc1ccc(C2=Nn3c(nnc3-c3cc(Cl)cc(Cl)c3Cl)SC2)cc1 in this test?
Result: inactive

Ask: Which outcome was assigned to CC(=O)[O-].[Mn+3].[O-]c1ccccc1C=NCCN=Cc1ccccc1[O-] in this test?
Result: inactive

Ask: Which outcome was assigned to COc1ccc(C(=O)/C=C/c2cc3c(c(OC)c2)OCC(=O)N3)cc1 in this test?
Result: inactive

Ask: Which outcome was assigned to N#CSc1c[nH]c2ccc(/C=C/C(=O)/C=C(/C=C/c3ccc4[nH]cc(SC#N)c4c3)OB(F)F)cc12 in this test?
Result: active

Ask: Which outcome was assigned to CN1CCN(c2ccc(Nc3nc(N)c(C(=O)c4ccc5c(c4)OCCO5)s3)cc2)CC1 in this test?
Result: inactive

Ask: Which outcome was assigned to CN1C(=O)[C@@H](NC(=O)[C@H](CCC(F)(F)F)[C@H](CCC(F)(F)F)C(N)=O)N=C(c2ccccc2)c2ccccc21 in this test?
Result: inactive

Ask: Which outcome was assigned to CS(=O)(=O)CCNCc1ccc(-c2ccc3ncnc(Nc4ccc(OCc5cccc(F)c5)c(C(F)(F)F)c4)c3c2)o1 in this test?
Result: inactive

* * *

Test system: CAKI-1 renal
Experiment: NCI tumour cell line growth inhibition, 48 h
valueKind: TGI

Examples from the recorded data:
{"compound": "O=C(O)CS", "studySystem": "CAKI-1 renal", "TGI": "> 100 µM"}
{"compound": "O=C(O)CNc1ccc(C(=O)O)cc1", "studySystem": "CAKI-1 renal", "TGI": "> 100 µM"}
{"compound": "N=C(N)c1ccc(-c2ccc(-c3ccccc3)s2)cc1", "studySystem": "CAKI-1 renal", "TGI": "2.92 µM"}
{"compound": "O=C1c2ccccc2NC1(c1ccccc1)c1c(-c2ccccc2)[nH]c2ccccc12 (stereo unspecified)", "studySystem": "CAKI-1 renal", "TGI": "> 100 µM"}
{"compound": "Cc1cccc(CC(Cc2c(C)cccc2C(=O)O)C(=O)O)c1 (stereo unspecified)", "studySystem": "CAKI-1 renal", "TGI": "> 100 µM"}

Ask: Lookup: TGI / CAKI-1 renal / COc1cc(/C=C2/SC(c3ccccc3)N(c3ccccc3)C2=O)cc(OC)c1OC (stereo unspecified)
Result: > 100 µM

* * *

Test system: A498 renal
Test: NCI tumour cell line growth inhibition, 48 h
Please go through the items and note down their TGI.

For each of the compounds below, state TGI.
1. CCN(CC)CCNC(=O)c1ccc(I)cc1
2. CCOP(=O)(C/C=C/Cn1nc(Br)c(=O)[nH]c1=O)OCC

Result:
["84.9 µM", "> 100 µM"]

For each of the compounds below, state TGI.
1. CCCCCCCCCCCCCCCC[N+](C)(CCO)Cc1cnc[nH]1 (stereo not given)
2. CC1(C)CC(=O)C2=C(C1)NC1=C(C(=O)CC(C)(C)C1)C2c1ccc([N+](=O)[O-])cc1
3. O=C1N2CCc3c([nH]c4ccccc34)C23CC2CCCCC12S3 (stereo not given)
4. CCN(CC)CCN1C(=O)c2c(c(-c3ccccc3)c3ccccc3c2-c2ccccc2)C1=O
5. Cc1ccc2c(sc(-c3ccc4c(c3)sc(-c3ccc5c(c3)sc(-c3ccc(N(C)C)cc3)[n+]5C)[n+]4C)[n+]2C)c1S(=O)(=O)O (tested in a mixture with another compound)
6. Cc1nc(CN2CCCCC2)c(O)c(=O)[nH]1
7. Nc1ncc(Cl)c(NCC2(CO)CC(CCc3ccccc3)C2)n1 (stereo not given)
8. CC(=O)[O-].[Mn+3].[O-]c1ccccc1C=NCCN=Cc1ccccc1[O-]

Result:
12.2 µM
> 100 µM
> 100 µM
> 100 µM
> 100 µM
> 100 µM
> 100 µM
> 100 µM

* * *

System: MDA-MB-231 breast
Assay: NCI tumour cell line growth inhibition, 48 h; in the data active = GI50 below about 0.43 µM; inactive = the rest
Pick one: Yes = active, No = inactive

Solved cases (3 shown):
{"compound": "COC1=CC(=O)C(OC)=C(OC)C1=O", "group": "No"}
{"compound": "CC(=O)N1c2ccccc2NC2=C(C(=O)N(Cc3ccccc3)C2(C)C)C1c1ccco1 (centres undefined)", "group": "Yes"}
{"compound": "COc1cc2c3c(n(CCCNCCCNCCCNCCCN)c(=O)c2cc1OC)-c1cc2c(cc1C3=O)OCO2", "group": "No"}

Ask: Which outcome was assigned to Cc1cc(O)c(C2=NN(c3ccc(S(N)(=O)=O)cc3)C(c3ccc(N(C)C)cc3)C2)c(C)c1Cl (centres undefined) in this test?
Result: No

Ask: Which outcome was assigned to CN1CCN(c2ccc(Nc3nc(N)c(C(=O)c4ccc5c(c4)OCCO5)s3)cc2)CC1 in this test?
Result: No

Ask: Which outcome was assigned to CC#C/C(=N\OC[C@H]1COCCN1)c1ccc2ncnc(Nc3ccc(OCc4cccc(F)c4)c(Cl)c3)c2c1 in this test?
Result: No

Ask: Which outcome was assigned to COC(=O)c1c(O)c([N+](=O)[O-])cc2c1c1c(n2Cc2ccccc2)C(=O)c2ccccc2C1=O in this test?
Result: No

Ask: Which outcome was assigned to CCCCCCCCCc1cc[n+](CC(=O)c2ccc([N+](=O)[O-])cc2)cc1 in this test?
Result: No

Ask: Which outcome was assigned to Cc1cc2cn3c4ccc(O)cc4[nH]c(=O)c3c2cc1C in this test?
Result: Yes

* * *

Please go through the items and note down their GI50.
Test system: ACHN renal
Test: NCI tumour cell line growth inhibition, 48 h

Examples from the recorded data:
{"compound": "CS(=O)(=O)Nc1cccc(-c2cc(-c3ccccc3Cl)c(C#N)c(N)n2)c1", "GI50": "0.679 µM"}
{"compound": "Clc1ccc(C2=Nn3c(nnc3-c3cc(Cl)cc(Cl)c3Cl)SC2)cc1", "GI50": "15.5 µM"}

For each of the compounds below, state GI50.
1. CCN(CC)c1ccc2c(c1)Oc1nc(N)c(C#N)c(N)c1C2Sc1ccc(OC)cc1 (stereo not given)
2. CN1C(=O)[C@@H](NC(=O)[C@H](CCC(F)(F)F)[C@H](CCC(F)(F)F)C(N)=O)N=C(c2ccccc2)c2ccccc21
3. Cc1cc(O)c(C2=NN(c3ccc(S(N)(=O)=O)cc3)C(c3ccc(N(C)C)cc3)C2)c(C)c1Cl (stereo not given)

Result:
1. 1.59 µM
2. 45 µM
3. 14.9 µM
